Target: T1, AS988 VHH (camel-derived)
T1 construct: One of the 10 different camel-derived nanobodies; not shown: His tag (VHH-His)
T1 sequence (VHH, as listed by the source): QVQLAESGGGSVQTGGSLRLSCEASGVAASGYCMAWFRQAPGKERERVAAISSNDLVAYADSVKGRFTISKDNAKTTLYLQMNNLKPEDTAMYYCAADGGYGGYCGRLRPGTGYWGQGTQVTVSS
Experiment: indirect ELISA, VHH coated

| binder | binding result |
| --- | --- |
| R166.H9 (antibody, V domains shown, Rabbit monoclonal; also called clone R166.H9) VH: QSLEESGGRLVTPGTPLTLTCTASGFSLNNYNMIWVRQAPGEGLEWIGMIGDGDDAAWYASWAKGRFTISKTSTTVDLEVTSLTTEDTAIYFCARYLSFTRLDLWGQGTLVTVSS VL: AVLTQTPSPVSAAVGGTVTINCQSSQSVYHNNWLAWYQQKPGQPPKLLIYGAATLASGVPSRFKGSGSGTQFTFTITDVQCDDVGTYYCAGVYNDDSENAFGGGTEVVVKG | binds |
| R166.G10 (antibody, V domains shown, Rabbit monoclonal; also called clone R166.G10) VH: QSVEESGGRLVTPGTPLTLTCTVSGFSLSSSAVSWVRQAPGKGLEYIGIIGSGGSTYYASWVNGRFTISKTSTTVDLKMTSLTAADTATYFCARYGGNSGGYDSFNLWGQGTLVTVSS VL: DVVMTQTPASVSEPVGGTVTIKCQASQSIYSHLSWYQQKPGQPPKLLIHGASTLASGASSRFKASGSGTEFTLTISDLECADAATYYCQCTAGTSIYGNAFGGGTEVVVRG | binds |
| R166.H10 (antibody, V domains shown, Rabbit monoclonal; also called clone R166.H10) VH: QSLEESGGRLVTPGTPLTLTCTASGFSLSSYWMSWVRQAPGKGLEYIGIISGSGSTYYATWAKGRFTISKTSSTTVDLKITSPTTEDTATYFCARGNPHYSFGFNIWGPGTLVTVSL VL: DIVMTQTPASVSEPVGGTVTINCQASESIYSWLSWYQQKPGQPPKLLIYSASYLASGVPSQFRGSGSGTEYTLTISDLECADAATYYCQYNYDSGDGITNGFGGGTEVVVKG | binds |
